Reference source: patent US20260216294A1

Consider the following molecules; for each one, report its Emax at 10 µM.
# Tested on: L6-myotubes
# MEASUREMENT DESCRIPTION: Glucose uptake in differentiated L6-myotubes (Biological Example 2)
# Format: cell-based
# PARTICULARS: glucose uptake; compound at 10 μM relative to isoproterenol at 10 μM; read-out: Biological example 2 (GU)
# Description: Compounds described in publications referenced and incorporated herein were screened in accordance with the procedures outlined in Biological example 2 and Biological example 3. […]

Prompt: Look up and state reported Emax at 10 µM for CC(C)(C)CNC[C@H](O)c1cccc(F)c1 [Compound 117]
Completion: 25 to 50%

Prompt: Look up and state reported Emax at 10 µM for CCC[C@@H]1CC[C@@H]([C@@H](O)c2cccc(F)c2)N1 [Compound 133]
Completion: 50 to 75%

Prompt: Look up and state reported Emax at 10 µM for CCC[C@H]1CC[C@@H]([C@H](O)c2cccc(F)c2)N1 [Compound 130]
Completion: 25 to 50%

Prompt: Look up and state reported Emax at 10 µM for CCCCNC[C@H](O)c1cnc(NC(=O)C(C)C)s1 [Compound 74]
Completion: 25 to 50%

Prompt: Look up and state reported Emax at 10 µM for CCC[C@@H]1CCC[C@H]([C@H](O)c2cccc(O)c2)N1 [Compound 45]
Completion: > 75%

Prompt: Look up and state reported Emax at 10 µM for CCC[C@H]1CCC[C@H]([C@H](O)c2ccccc2F)N1 [Compound 93]
Completion: 25 to 50%

Prompt: Look up and state reported Emax at 10 µM for CC(C)(C)NC[C@H](O)c1ccc(F)cn1 [Compound 96]
Completion: 50 to 75%

Prompt: Look up and state reported Emax at 10 µM for CCCCNC[C@H](O)c1ccc(F)c(O)c1 [Compound 85]
Completion: > 75%

Prompt: Look up and state reported Emax at 10 µM for CC1(C)CC[C@H]([C@@H](O)c2cccc(O)c2)N1 [Compound 111]
Completion: 50 to 75%

Prompt: Look up and state reported Emax at 10 µM for Oc1ccc(C(O)CNC2CCCC2)cc1 (stereo not shown) [Compound 10]
Completion: 50 to 75%
